B1: LINE1-full (parent)
chain: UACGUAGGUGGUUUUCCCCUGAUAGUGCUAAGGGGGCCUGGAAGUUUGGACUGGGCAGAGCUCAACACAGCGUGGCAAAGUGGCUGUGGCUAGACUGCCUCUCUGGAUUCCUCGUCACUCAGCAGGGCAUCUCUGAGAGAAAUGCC

# Variants of: B1
# protocol-details: self-cleavage, relative activity (ratio to wild type); higher = more cleavage; in vitro, sequencing; the parent is a self-cleaving ribozyme
For each record, write down the corresponding self-cleavage.
Returns: the value as a bare number; no unit string appended.

### Prompt Query (variant): A6U U23A ; field requested: self-cleavage
### Response 0.26

### Prompt Query (variant): U100C U112A ; field requested: self-cleavage
### Response 1.74

### Prompt Query (variant): U52G G58A ; field requested: self-cleavage
### Response 0.09

### Prompt Query (variant): A94G U132G ; field requested: self-cleavage
### Response 0.28

### Prompt Query (variant): C17U A64G ; field requested: self-cleavage
### Response 0.22

### Prompt Query (variant): U45A A142G ; field requested: self-cleavage
### Response 1.55

### Prompt Query (variant): A77U ; field requested: self-cleavage
### Response 1.21

### Prompt Query (variant): G53A A121U ; field requested: self-cleavage
### Response 1.7

### Prompt Query (variant): U85A U115C ; field requested: self-cleavage
### Response 0.13

### Prompt Query (variant): A42G A69U ; field requested: self-cleavage
### Response 0.04

### Prompt Query (variant): U15C A79G ; field requested: self-cleavage
### Response 1.18

### Prompt Query (variant): A24U A142G ; field requested: self-cleavage
### Response 1.29

### Prompt Query (variant): G40A A43G ; field requested: self-cleavage
### Response 1

### Prompt Query (variant): C84U A117G ; field requested: self-cleavage
### Response 0.2

### Prompt Query (variant): C19A A138G ; field requested: self-cleavage
### Response 0.72

### Prompt Query (variant): U14C U132A ; field requested: self-cleavage
### Response 0.87

### Prompt Query (variant): A43G A129U ; field requested: self-cleavage
### Response 0.95

### Prompt Query (variant): A141G A142U ; field requested: self-cleavage
### Response 1.36

### Prompt Query (variant): A78G U81G ; field requested: self-cleavage
### Response 0.34

### Prompt Query (variant): U26C G33U ; field requested: self-cleavage
### Response 1.01

### Prompt Query (variant): G21A U29C ; field requested: self-cleavage
### Response 1.04
